Ref: patent US20240343740A1

Biological target: UniProt P43220
Assay: Human GLP-1 Receptor HEK293 cell cAMP assay, 104 fmol/mg GLP-1R expression density
Assay type: cell-based
Design: expressed in transfected cells; host or cells: HEK293 clonal cell line
Settings: HEK293 cell line with 104 fmol/mg expression density of GLP-1R; geometric mean; read-out: EC50 nM (SEM, n), intracellular cAMP response, relative EC50
assay.metric: EC50 (nM)

molecule: N#Cc1ccc2c(c1)CCCOc1cc(c(F)cc1Cc1nc3ccc(C(=O)O)cc3n1C[C@@H]1CCO1)-c1cccc(n1)NC2 [Example 8]
readout.number: 815

P: Cn1cc(-c2ccc3c(c2)CCCOc2cc(ccc2Cc2nc4ccc(C(=O)O)cc4n2C[C@@H]2CCO2)-c2cccc(n2)OC3)cn1 [Example 40]
Q: Cn1nccc1-c1ccc2c(c1)CCCOc1cc(ccc1Cc1nc3ccc(C(=O)O)cc3n1C[C@@H]1CCO1)-c1cccc(n1)OC2 [Example 31]
**Query** Of P versus Q , which is the one with smaller reported EC50? State your choice using its label.
**Result** P
(P: 154 nM, Q: 251 nM)

* * *

Target: human GLP-1R (Homo sapiens)
Sequence (P43220 24-463): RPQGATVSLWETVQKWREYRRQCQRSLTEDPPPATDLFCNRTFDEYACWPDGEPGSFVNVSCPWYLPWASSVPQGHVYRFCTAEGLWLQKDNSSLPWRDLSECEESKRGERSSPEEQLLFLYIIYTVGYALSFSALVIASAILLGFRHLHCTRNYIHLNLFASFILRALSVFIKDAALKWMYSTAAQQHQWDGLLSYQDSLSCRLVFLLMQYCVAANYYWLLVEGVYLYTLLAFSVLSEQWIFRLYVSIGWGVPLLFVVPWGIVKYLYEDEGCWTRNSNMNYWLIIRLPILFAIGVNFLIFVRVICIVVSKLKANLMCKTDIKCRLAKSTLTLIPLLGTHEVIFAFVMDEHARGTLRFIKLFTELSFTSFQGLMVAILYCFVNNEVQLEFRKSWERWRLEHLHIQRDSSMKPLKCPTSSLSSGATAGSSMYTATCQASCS
Test: Human GLP-1 Receptor HEK293 cell cAMP assay, 581 fmol/mg GLP-1R expression density
Assay type: cell-based
Set-up: expressed in transfected cells; host or cells: HEK293 clonal cell line
Details: HEK293 cell line with 581 fmol/mg expression density of GLP-1R; geometric mean; read-out: EC50 nM (SEM, n), intracellular cAMP response, relative EC50
assay.metric: EC50 (nM)

chemical.string: COCCOc1cc(C(=O)O)cc2c1nc(Cc1cc(F)c3cc1COCc1cc(C#N)ccc1COc1cccc-3n1)n2C[C@@H]1CCO1
system.tested: human GLP-1R (Homo sapiens)
unit.of.measurement: nM
EC50: 6.82

P: N#Cc1ccc2c(c1)CCCOc1cc(c(F)cc1Cc1nc3c(F)cc(C(=O)O)cc3n1C[C@@H]1CCO1)-c1cccc(n1)OC2
Q: COc1cc(C(=O)NS(=O)(=O)CC2CC2)cc2c1nc(Cc1cc(C)c3cc1OCCCc1cc(F)ccc1COc1cccc-3n1)n2C[C@@H]1CCO1
**Query** Of P versus Q , which is the one with smaller reported EC50? State your choice using its label.
**Result** P

* * *

Biological target: human GLP-1R (Homo sapiens)
Assay: Human GLP-1 Receptor HEK293 cell cAMP assay, 104 fmol/mg GLP-1R expression density
Assay type: cell-based
Parameters: expressed in transfected cells; host or cells: HEK293 clonal cell line
Conditions: HEK293 cell line with 104 fmol/mg expression density of GLP-1R; percent of maximal response to GLP-1(7-36)NH2; arithmetic mean; read-out: Emax % (SEM, n), intracellular cAMP response
Counter-ions that a name gives are not always drawn.
assay.metric: Emax (%)

compound: COCCOc1cc(C(=O)O)cc2c1nc(Cc1cc(F)c3cc1COCc1cc(-c4ccc(=O)n(C)c4)ccc1COc1cccc-3n1)n2C[C@@H]1CCO1
unit.of.measurement: %
Emax: 71.6
//
compound: COc1cc(C(=O)O)cc2c1nc(Cc1cc(C)c3cc1OCCCc1cnccc1COc1cccc-3n1)n2C[C@@H]1CCO1
unit.of.measurement: %
Emax: 82.5
//
compound: COCCOc1cc(C(=O)O)cc2c1nc(Cc1ccc3cc1COCCc1cc(C(F)(F)F)ncc1COc1cccc-3n1)n2C[C@@H]1CCO1
unit.of.measurement: %
Emax: 84.3
//
compound: COCCOc1cc(C(=O)O)cc2c1nc(Cc1ccc3cc1COCCc1cc(C#N)ccc1COc1ccc(F)c-3n1)n2C[C@@H]1CCO1
unit.of.measurement: %
Emax: 85.5
//
compound: COCCOc1cc(C(=O)O)cc2c1nc(Cc1ccc3cc1COCCc1cc(ccc1C#N)COc1cccc-3n1)n2C[C@@H]1CCO1
unit.of.measurement: %
Emax: 98.2
//
compound: COc1cc(C(=O)O)cc2c1nc(Cc1cc(F)c3cc1OCCCc1cc(C#N)cnc1COc1cccc-3n1)n2C[C@@H]1CCO1 [Example 43, diformate salt]
unit.of.measurement: %
Emax: 72

* * *

Target: human GLP-1R (Homo sapiens)
Test: Human GLP-1 Receptor HEK293 cell cAMP assay, 581 fmol/mg GLP-1R expression density
Format: cell-based
Parameters: expressed in transfected cells; host or cells: HEK293 clonal cell line
Details: HEK293 cell line with 581 fmol/mg expression density of GLP-1R; percent of maximal response to GLP-1(7-36)NH2; arithmetic mean; read-out: Emax % (SEM, n), intracellular cAMP response
assay.metric: Emax (%)

Recorded results for 3 compounds are shown here.
compound: COc1cc(C(=O)O)cc2c1nc(Cc1ccc3cc1COCCc1cc(C#N)ccc1COc1ccnc-3n1)n2C[C@@H]1CCO1 [Example 51]
system.tested: human GLP-1R (Homo sapiens)
Emax (%): 96.7
//
compound: N#Cc1ccc2c(c1)OCCOc1cc(c(F)cc1Cc1nc3ccc(C(=O)O)cc3n1C[C@@H]1CCO1)-c1cccc(n1)OC2 [Example 13]
system.tested: human GLP-1R (Homo sapiens)
Emax (%): 88.5
//
compound: COc1cc(C(=O)O)cc2c1nc(Cc1cc(F)c3cc1COCc1cc(C#N)ccc1COc1cccc-3n1)n2C[C@@H]1CCO1 [Example 17]
system.tested: human GLP-1R (Homo sapiens)
Emax (%): 121

I: Cc1nc(CCOc2cc(C(=O)O)cc3c2nc(Cc2ccc4cc2OCCCc2cc(C#N)ccc2COc2cccc-4n2)n3C[C@@H]2CCO2)co1 [Example 53]
II: COc1cc(C(=O)NS(=O)(=O)CC2CC2)cc2c1nc(Cc1cc(C)c3cc1OCCCc1cc(F)ccc1COc1cccc-3n1)n2C[C@@H]1CCO1 [Example 69]
**Query** Compare I and II by numeric Emax and name the larger one. State your choice using its label.
**Result** I
(I: 104%, II: 71.6%)

* * *

Molecular target: UniProt P43220
Experiment: Human GLP-1 Receptor HEK293 cell cAMP assay, 104 fmol/mg GLP-1R expression density
Format: cell-based
Set-up: expressed in transfected cells; host or cells: HEK293 clonal cell line
Settings: HEK293 cell line with 104 fmol/mg expression density of GLP-1R; percent of maximal response to GLP-1(7-36)NH2; arithmetic mean; read-out: Emax % (SEM, n), intracellular cAMP response
assay.metric: Emax (%)

chemical.string: O=C(O)c1ccc2nc(Cc3ccc4cc3OCCCc3cc(-c5cnn(CC6COC6)c5)ccc3COc3cccc-4n3)n(C[C@@H]3CCO3)c2c1
system.tested: UniProt P43220
Emax [%]: 74.9

1: CCn1cncc1Cn1c(Cc2ccc3cc2OCCCc2cc(C#N)ccc2COc2cccc-3n2)nc2c(OC)cc(C(=O)O)cc21
2: O=C(O)c1ccc2nc(Cc3ccc4cc3OCCCc3cc(-c5ccc(=O)[nH]c5)ccc3COc3cccc-4n3)n(C[C@@H]3CCO3)c2c1
3: COc1cc(C(=O)NS(=O)(=O)CC2CC2)cc2c1nc(Cc1cc(C)c3cc1OCCCc1cc(F)ccc1COc1cccc-3n1)n2C[C@@H]1CCO1
**Query** Sort the 3 molecules by Emax; largest first, smallest last. Give me the labels in the order the question wants.
**Result** 1, 2, 3

* * *

Molecular target: UniProt P43220
Assay: Human GLP-1 Receptor HEK293 cell cAMP assay, 104 fmol/mg GLP-1R expression density
Assay type: cell-based
Design: expressed in transfected cells; host or cells: HEK293 clonal cell line
Settings: HEK293 cell line with 104 fmol/mg expression density of GLP-1R; geometric mean; read-out: EC50 nM (SEM, n), intracellular cAMP response, relative EC50
assay.metric: EC50 (nM)

Recorded results for 4 compounds are shown here.
chemical.string: O=C(O)c1ccc2nc(Cc3ccc4cc3OCCCc3cc(-c5cnn(CC6COC6)c5)ccc3COc3cccc-4n3)n(C[C@@H]3CCO3)c2c1
readout.number: 287
--
chemical.string: O=C(O)c1cc(OCCO)c2nc(Cc3ccc4cc3COCCc3cc(Cl)ccc3COc3cccc-4n3)n(C[C@@H]3CCO3)c2c1
readout.number: 22.8
--
chemical.string: COc1cc(C(=O)O)cc2c1nc(Cc1cc(C)c3cc1OCCCc1cnccc1COc1cccc-3n1)n2C[C@@H]1CCO1
readout.number: 165
--
chemical.string: COc1cc(-c2ccc3c(c2)CCCOc2cc(ccc2Cc2nc4ccc(C(=O)O)cc4n2C[C@@H]2CCO2)-c2cccc(n2)OC3)ccn1
readout.number: 616

A: COc1cc(C(=O)O)cc2c1nc(Cc1cc(C)c3cc1OCCCc1nc(C(F)(F)F)ccc1COc1cccc-3n1)n2C[C@@H]1CCO1
B: COc1ccc(-c2ccc3c(c2)CCCOc2cc(ccc2Cc2nc4ccc(C(=O)O)cc4n2C[C@@H]2CCO2)-c2cccc(n2)OC3)cn1
**Query** Compare A and B by numeric EC50 and name the larger one. State your choice using its label.
**Result** B
